# measuredTarget: T1, recombinant fibronectin domain 7-8-9 (without ED-B) (UniProt P02751-1 1173-1446, limits assumed)
# T1 construct: domain: fibronectin domains 7-8-9 (without ED-B)
# protocol: specificity ELISA on immobilised recombinant domain 7-8-9
readoutType: binding result

MOR02618 (Fab, V domains shown, HuCAL GOLD Fab, VH3/L3) VH: QVQLVESGGGLVQPGGSLRLSCAASGFTFNNYGMTWVRQAPGKGLEWVSSIYGYGSNTYYADSVKGRFTISRDNSKNTLYLQMNSLRAEDTAVYYCARNYWVFAYWGQGTLVTVSS VL: DIELTQPPSVSVAPGQTARISCSGDNIPGKSVHWYQQKPGQAPVLVIYGKMNRPSGIPERFSGSNSGNTATLTISGTQAEDEADYYCQSYDNFNDSVVFGGGTKLTVLG = no binding
MOR02722 (Fab, V domains shown, HuCAL GOLD Fab, VH3/K2) VH: QVQLVESGGGLVQPGGSLRLSCAASGFTFSSNAIHWVRQAPGKGLEWVSSISGSGSNTYYADSVKGRFTISRDNSKNTLYLQMNSLRAEDTAVYYCARFIASWGQGTLVTVSS VL: DIVMTQSPLSLPVTPGEPASISCRSSQSLVHSNGYTDLNWYLQKPGQSPQLLIYLGSYRASGVPDRFSGSGSGTDFTLKISRVEAEDVGVYYCQQYSNFPFTFGQGTKVEIKR = no binding
MOR02622 (Fab, V domains shown, HuCAL GOLD Fab, VH3/L2) VH: QVQLVESGGGLVQPGGSLRLSCAASGFTFSNYAMTWVRQAPGKGLEWVSGISYKSSSTYYADSVKGRFTISRDNSKNTLYLQMNSLRAEDTAVYYCARGLVTFDNWGQGTLVTVSS VL: DIALTQPASVSGSPGQSITISCTGTSSDGGTYNFVSWYQQHPGKAPKLMIYRVSNRPSGVSNRFSGSKSGNTASLTISGLQAEDEADYYCSSWTHSFTDYVFGGGTKLTVLG = no binding
